# protocol: Metabolic stability in human liver microsomes assessed as half life
# Type: ADME, Microsome
The compounds listed here are annotated with their half-life.
Report only the number, with the unit min understood.

Below, each entry is followed by its recorded half-life result.
O=C(Cc1c(-c2ccccc2)nc2ccccn12)Nc1ccc2c(c1)S(=O)(=O)C=C2 : 24.2
COc1ccn2c(-c3ccc(NC(=O)c4ccc([N+](=O)[O-])o4)cc3C)cnc2c1 : 43
O=C(Nc1ccc(-c2cnc3ccccn23)cc1)c1ccc([N+](=O)[O-])o1 : 24.7
O=C(Nc1ccc(-c2cnc3cc(C4=CCNCC4)ccn23)cc1)c1ccc([N+](=O)[O-])o1 : 12.2
COc1ccn2c(-c3ccc(NC(=O)c4ccc([N+](=O)[O-])o4)c(C(F)(F)F)c3)cnc2c1 : 24.2

Then this compound:
**Q:** Form field: reported half-life of Cc1cc(-c2cnc3ccccn23)ccc1NC(=O)c1ccc([N+](=O)[O-])o1
**A:** 36.7

* * *

# protocol: Metabolic stability in human liver microsomes assessed as half life
# Format: ADME, Microsome
Parameter: half-life. Scope: all listed entries.
Response body: numeric value in min, unit text excluded.

COc1ccn2c(-c3ccc(NC(=O)c4ccc([N+](=O)[O-])o4)cc3)cnc2c1 : 28.3
CC(=O)N1CC=C(c2ccn3c(-c4ccc(NC(=O)c5ccc([N+](=O)[O-])o5)cc4)cnc3c2)CC1 : 13.5

**Q:** Return reported half-life; argument: Cc1cc(NC(=O)c2ccc([N+](=O)[O-])o2)ccc1-c1cnc2ccccn12
**A:** 41.2

* * *

# System: MGC-803
# protocol: Antiproliferative activity against human MGC-803 cells assessed as reduction in cell viability incubated for 72 hrs by CCK-8 assay
# Assay type: functional, cell-based
# condition-notes: MGC-803, 72 h
measurement-kind: pIC50
Scale for pIC50: -log10 of concentration given in mol/L; no unit attached.

# count of solved cases: 3
O=C(Nc1ccc(-c2cnc3cc(N4CCS(=O)(=O)CC4)ccn23)cc1)c1ccc([N+](=O)[O-])o1 : 5.52
O=C(Nc1ccc(-c2cnc3cc(N4CCOCC4)ccn23)cc1)c1ccc([N+](=O)[O-])o1 : 5.13
O=C(Nc1ccc(-c2cnc3cc(C4=CCNCC4)ccn23)cc1)c1ccc([N+](=O)[O-])o1 : 6.10

// below: pIC50 requested for another compound
**Q:** Return reported pIC50; argument: CC1(O)CCN(c2ccn3c(-c4ccc(NC(=O)c5ccc([N+](=O)[O-])o5)cc4)cnc3c2)CC1
**A:** 5.51

* * *

# System: AGS
# protocol: Antiproliferative activity against human AGS cells assessed as reduction in cell viability incubated for 72 hrs by CCK-8 assay
# Type: functional, cell-based
In this section, each of the compounds is paired with its reported IC50.
Please reply with the bare figure in nM and do not write the unit itself.

Solved entries (count: 5):
O=C(Nc1ccc(-c2cnc3ccccn23)cc1)c1ccc([N+](=O)[O-])o1 : 360
COc1ccn2c(-c3ccc(NC(=O)c4ccc([N+](=O)[O-])o4)c(C)c3C(F)(F)F)cnc2c1 : 2100
CC1(O)CCN(c2ccn3c(-c4ccc(NC(=O)c5ccc([N+](=O)[O-])o5)cc4)cnc3c2)CC1 : 1530
CC(=O)N1CC=C(c2ccn3c(-c4ccc(NC(=O)c5ccc([N+](=O)[O-])o5)cc4)cnc3c2)CC1 : 410
COc1ccn2c(-c3ccc(NC(=O)c4ccc([N+](=O)[O-])o4)cc3C)cnc2c1 : 640

**Q:** Fill in the blank: the reported IC50 of O=C(Nc1ccc(-c2cnc3cc(N4CCCC4)ccn23)cc1)c1ccc([N+](=O)[O-])o1 is ____.
**A:** 1240

**Q:** Which IC50 is reported for this compound? COc1ccn2c(-c3ccc(NC(=O)c4ccc([N+](=O)[O-])o4)c(C)c3)cnc2c1
**A:** 430
